Tested Target: T1, human IL-17A (human, UniProt Q16552 24-155)
T1 construct: Purified recombinant; biotinylated in the ELISA; also called HuIL-17A; Hu IL-17A
T1 sequence (Q16552 24-155 limits assumed): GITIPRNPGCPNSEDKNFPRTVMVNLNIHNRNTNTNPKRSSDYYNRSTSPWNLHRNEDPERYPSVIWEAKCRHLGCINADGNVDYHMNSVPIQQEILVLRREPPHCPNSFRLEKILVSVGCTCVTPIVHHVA
Test Summary: SPR Biacore, captured binder
Measurement Name: kon

Here is how some binders turned out for kon.
| Binder | kon |
| --- | --- |
| IL17-G9-2 (antibody, V domains shown) VH: EVQLLESGGGVVQPGRSLRLSCAASGFIFRNYGMHWVRQAPGKGLEWVAVISYDGSNKYYADSVKGRFTISRDNSKNTLYLEMNSLRPEDTAVYYCAKVGASGDYYYSYGLDVWGQGTTVTVSS VL: QSVLTQPPSASGTPGQTVSISCSGSNSNIGRHPVDWYQQVPGAAPKLLIYYDDQRPSGVPDRFSGSQSGTSASLAISGLQSEDEADYYCATWDDSLGGYVFGSGTKVTVLG | 231000 M⁻¹ s⁻¹ |
| IL17-G9-4 (antibody, V domains shown, converted into IgG) VH: EVQLLESGGGVVQPGRSLRLSCAASGFIFSNYGMHWVRQAPGKGLEWVAVISYDGSNKYYADSVKGRFTISRDNSKNTLYLEMNSLRPEDTAVYYCAKVGASGDYYYSYGLDVWGQGTTVTVSS VL: QSVLTQPPSASGTPGQTVSISCSGRQSNIGRHYVDWYQQVPGAAPKLLMYYDSIRPSGVPDRFSGSQSGTSASLAISGLQSEDEADYYCATWDDSLGGYVFGSGTKVTVLG | 213000 M⁻¹ s⁻¹ |
| IL17-B6-17 (antibody, V domains shown) VH: EVQLVQSGAEVKKPGSSVKVSCKASGGSFGGYGIGWVRQAPGQGLEWMGGITPFFGFADYAQKFQGRVTITADESTTTAYMELSGLTSDDTAVYYCARDPNEFWNGYYSTHDFDSWGQGTTVTVSS VL: EIVLTQSPDFQSVTPKEKVTITCRASQDIGSELHWYQQKPDQPPKLLIKYASHSTSGVPSRFSGSGSGTDFTLTINGLEAEDAGTYYCHQTDSLPYTFGPGTKVDIK | 3.95e+06 M⁻¹ s⁻¹ |

As a next step, examine the binder that follows.
Return reported kon; argument: IL17-B6-15 (antibody, V domains shown) VH: EVQLVQSGAEVKKPGESLKISCKASGGSFSGYGTSWVRQAPGQGLEWMGGITHFFGAVDYAQKFQGRVTITADESTTTAYMELSGLTSDDTAVYYCARDPNEFWNGYYATHDFDYWGQGTTVTVSS VL: EIVLTQSPDFQSVTPKEKVTITCRASQNIGAELHWYQQKPDQSPKLLIKYASHSISGVPSRFSGSGSGTDFTLTINGLEAEDAGTYYCHQTDRLPYSFGPGTKVDIK
8.25e+06 M⁻¹ s⁻¹
